system: DMS-273; test: NCI tumour cell line growth inhibition, 48 h
Active and inactive are the calls of the source. Rule as the data show it: active = GI50 up to about 1.1 µM and inactive = higher.
experimental.readout: GI50

// solved cases for GI50 follow
query: Identify measured GI50 associated with Cn1cc(C(=O)C2CCCCC2)ccc1=O
result: > 100 µM (inactive)

query: Give recorded GI50. O=c1ccc(=O)c2c(=O)c3ccccc3c(=O)c1=2
result: 46.7 µM (inactive)

query: Given the compound CCCCCCCCCCCC[S+](C)C , write its reported GI50.
result: 5.2 µM (inactive)

query: Report GI50 for CSc1sc(=S)sc1C(=O)N(C)c1ccccc1
result: > 100 µM (inactive)

query: Give reported GI50 value for CNc1ccc2ncccc2c1[N+](=O)[O-]
result: > 100 µM (inactive)

query: Given CC(C)CCC[C@@H](C)C1CCC2[C@@H]3CC=C4C[C@@H](C(=O)NCC[N+](C)(C)CCCS(=O)(=O)[O-])CC[C@]4(C)C3CC[C@@]21C (some centres not stated) , respond with its GI50.
result: 17 µM (inactive)

Give me GI50 for each of these compounds, listed below.
1. C=C1C(=O)OC2/C=C(\C=O)CC/C=C(\C)C(O)C[C@@H]12 (some centres not stated)
2. Cc1ccccc1NC(=O)C(=O)C(C#N)c1ccccc1C (configuration not stated)
3. COc1ccc(/C(Cl)=C(\C=O)c2ccc(Cl)cc2)cc1
4. CCOC(=O)c1csc(CCCCCCc2nc(C(=O)OCC)cs2)n1
5. O=C1C2C(C(=O)N1c1ccccc1)C1c3ccccc3C2C2C(=O)N(c3ccccc3)C(=O)C21 (configuration not stated)
6. Cc1c2c(cc3c(=O)ccn(CCN(C)C)c13)c(=O)ccn2CCN(C)C

result:
["4.36 µM (inactive)", "> 100 µM (inactive)", "4.34 µM (inactive)", "41.2 µM (inactive)", "3.46 µM (inactive)", "4.18 µM (inactive)"]
